Data origin: paper PMC12040169

Listing of recorded viability at 28.5 h, 10 µM by entry.
method notes: in vitro
condition details: human, hela cells, % viability
experimental endpoint: viability at 28.5 h, 10 µM (%)

>>> val("O=c1ncccn1[C@@H]1O[C@H](CO)[C@H](O)C1O (stereo partly drawn) [CBK201195]")
94
>>> val("Nc1nc(O)cc(C2CCN(CCOc3ccccc3F)C2)n1 (stereo not drawn) [CBK304726]")
102
>>> val("C/C(=C(/C(=O)N(N)c1nc2ccccc2s1)C(=O)C(F)(F)F)N1CCC(C(N)=O)CC1 [CBK265758]")
87.7
>>> val("CC(=O)c1c(C)[n+]([O-])c2cc(Cl)c(Cl)cc2[n+]1[O-] [CBK265017]")
108
>>> val("CCOc1ccc(C(=O)Nc2ccc(-c3nc4ccccc4s3)cc2C)cc1[N+](=O)[O-] [CBK269005]")
90.5
>>> val("CC(=O)c1ccc(C(=O)Nc2nc3c(s2)COc2ccccc2-3)cc1 [CBK287363]")
81.9
>>> val("CN(Cc1nccs1)C(=O)c1cccc(OCC(=O)N2CCCCC2)c1 [CBK307478]")
108
>>> val("O=C(O)c1cccc(NS(=O)(=O)c2cccc(Cl)c2Cl)c1 [CBK155686]")
94.7
>>> val("Cn1nccc1CNc1ncn(CC(=O)N2CCCCCC2)n1 [CBK306454]")
90
>>> val("CCCCOc1nccnc1/C=C/c1ccccc1 [CBK106890]")
92
>>> val("NCc1ccc2cccc(O)c2n1 [CBK001376T]")
85.6
>>> val("CS(=O)(=O)Nc1nccnc1N1CCN(C(=O)c2ccno2)CC1 [CBK048861]")
107
>>> val("Cc1cnn(C2(C(=O)O)CCN(C(=O)c3cccc(C#N)c3)CC2)c1 [CBK307058]")
102
>>> val("Cc1ccc2cc(COc3cccnc3[N+](=O)[O-])c(Cl)nc2c1C [CBK297113]")
103
>>> val("O=C(CC1Nc2ccccc2NC1=O)Nc1ccccc1 (stereo not drawn) [CBK265365]")
99.8
>>> val("O=C(N/N=C/c1c(F)cccc1Cl)c1ccccc1O [CBK261815]")
113
>>> val("CCN1CCN(C(=O)Cc2cccnc2)CC1 [CBK200375]")
92.3
>>> val("CCOC(=O)C1CC2CCC1C[C@]21NC(=O)c2ccccc2N1 (stereo partly drawn) [CBK284441]")
93.4
>>> val("Cc1ccc(-c2nnn(CC(=O)N(CCO)C(C(=O)NC3CCCC3)c3ccc(F)cc3)n2)o1 (stereo not drawn) [CBK084756]")
89.2
>>> val("O=C(Nc1ccc2nsnc2c1NC(=O)c1ccc2nsnc2c1)c1ccc2nsnc2c1 [CBK264309]")
95.9
>>> val("CCNC(=O)N1CC2(CCN(CC(=O)c3ccsc3)CC2)c2ccccc21 [CBK144601T]")
88.6
>>> val("COc1cc(-c2cc(-c3ccccc3)nc(SCC(=O)O)c2C#N)cc(OC)c1OC [CBK131867]")
99.3
>>> val("O=C(Nc1ccncc1)c1cc2cc(F)ccc2[nH]1 [CBK107346]")
103
>>> val("CCOc1ccc(S(=O)(=O)NCCCN2CCOCC2)c2ccccc12 [CBK018421]")
89.8
>>> val("COc1ccc(S(=O)(=O)Nc2ccncc2)cc1N(C)S(=O)(=O)c1ccccc1 [CBK267179]")
103
>>> val("O=S(=O)(CCc1ccccc1)N1CCCn2nc(-c3ccncc3)cc2C1 [CBK288608]")
87.3
>>> val("COCC(=O)N[C@H]1C[C@H]2C(=O)Nc3ccc(-c4ccsc4)cc3C(=O)N2C1 [CBK289360]")
96.6
>>> val("Cc1ncccc1COC(=O)Nc1cccnc1 [CBK138237]")
94.3
>>> val("COc1cccc(C(=O)Nc2nn(Cc3ccc(C(F)(F)F)cc3)c3ccccc23)c1 [CBK048273]")
83.9
>>> val("O=C(c1ccco1)N1C2CCC1CC(O)(c1cccnc1F)C2 (stereo not drawn) [CBK284417]")
98.6
>>> val("Cc1cccc(CSc2nc3ncccc3[nH]2)c1 [CBK287963]")
96.9
>>> val("CC(C)C1OC(NCCN2CCOCC2)=NC1=O (stereo not drawn) [CBK074097T]")
91
>>> val("O=C(CCCc1ccccc1)Nc1ccc(F)cc1[N+](=O)[O-] [CBK265446]")
99.9
>>> val("Cc1cc(C[C@@H]2COC[C@H]2NCc2ccc(C(F)(F)F)cc2)on1 [CBK285463]")
107
>>> val("O=C(c1ccc(F)cc1)C1CCN(Cc2cccnc2)CC1 [CBK149118]")
101
>>> val("CCn1c2ccccc2c2cc(CN3CCN(Cc4cccc(F)c4)CC3)ccc21 [CBK263143]")
90.5
>>> val("CC(=O)NCC(CN1CCOCC1)([N+](=O)[O-])[N+](=O)[O-] [CBK261337]")
88.2
>>> val("Cc1ccc(N2C(=O)c3ccc(C(=O)c4ccc(C(=O)O)cc4)cc3C2=O)cc1 [CBK287164]")
93.5
>>> val("CCOc1cc(NC2CCN(C(=O)C(C)(C)C3CCCC3)CC2)ncn1 [CBK304430]")
91.2

====

method notes: in vitro
condition details: human, hela cells, % viability
experimental endpoint: viability at 28.5 h, 10 µM (%)

>>> val("CCCCNC(=O)c1ccc2nc(CC)c(N(C)C(=O)C3CCCCC3)n2c1 [CBK145791]")
88.9
>>> val("CC(O)CNc1nccnc1-c1cccc(CO)c1 (stereo not drawn) [CBK037056]")
91.5
>>> val("c1ccc(CN2CCC(N3CCC(N4CCc5ccccc5C4)CC3)CC2)cc1 [CBK264730G]")
91
>>> val("O=C(Nc1ccc(Cc2ccc(NC(=O)c3ccccc3F)c(O)c2)cc1O)c1ccccc1F [CBK268366]")
90.4
>>> val("CCN(CC)C(=O)CN(CCc1ccc(OC)c(OC)c1)C(=O)NCc1c(Cl)cccc1Cl [CBK158743]")
89.9
>>> val("N#Cc1ccc(CNC(=O)N2CCCC(C(=O)O)C2)cc1 (stereo not drawn) [CBK161352]")
89.5
>>> val("O=C(CN1CCOCC1)NC1(c2ccccc2)CCCCC1 [CBK059545C]")
85.6
>>> val("COc1cccc(/C=N/c2cc(S(=O)(=O)c3ccc(O)c(/N=C/c4cccc(OC)c4O)c3)ccc2O)c1O [CBK261225]")
92.4
>>> val("CC(C)c1ccc(S(=O)(=O)NCC(C)(C)CO)cc1 [CBK043547]")
110

====

Tested on: HeLa
condition details: bulk resorufin, single well, 28.5 h, 10 µM, Bulk resorufin fluorescence
experimental endpoint: % viability (%)

>>> val("CC[C@H](CO)NC(=O)c1coc(COc2ccc3sc(C)nc3c2)n1 [CBK306602]")
93.5
>>> val("CC(C)NC(=O)n1nccc1-c1cc(-c2ccccc2)no1 [CBK086581]")
82.6
>>> val("C[C@@H]1CN2C[C@H](O)CC2CN1Cc1ccc2c3ccccc3n(C)c2c1 (some centres unmarked) [CBK284554]")
102
>>> val("Cc1cc(C(NC(C)(C)C)C(=O)O)cc(C)c1O (centres unmarked) [CBK027143]")
90.9
>>> val("CNc1cc(NS(=O)(=O)c2ccc(N)cc2)nc(NC)n1 [CBK011865]")
93
>>> val("CNC(=S)N1CCN(c2nsc3ccccc23)CC1 [CBK288515]")
83.2
>>> val("COc1cccc(CN2CC3CCCN3C[C@H]2C)c1 (some centres unmarked) [CBK285442]")
105
>>> val("CC(C)[C@@H](Cn1nc(C2CC2)ccc1=O)NC(=O)C1CC1 [CBK284309]")
85.9

====

method notes: in vitro
condition details: human, hela cells, % viability
Reported viability at 28.5 h, 10 µM is given for each of the following molecules.
experimental endpoint: viability at 28.5 h, 10 µM (%)

>>> val("CCOc1cccc(-c2ccc(Nc3cccc(NC(=O)c4ccncc4)c3)nc2)c1")
49.4
>>> val("Cc1c(C(C)NCCc2nnc[nH]2)cnn1-c1ccc(C#N)cc1 (centres unmarked)")
98.1
>>> val("CC(C)(C)OC(=O)N1CCC[C@@H]([C@H](O)c2nccs2)C1")
81
>>> val("Cc1cc(C)n(CC(C)CNC(=O)Cc2csc(C(C)(C)C)n2)n1 (centres unmarked)")
96.1
>>> val("O=C(O)CSc1nc2nc3c(cc2c(=O)n1Cc1ccccc1)CCCC3")
86.4
>>> val("Cc1cccc(S(=O)(=O)N2CCN(C)CC2)c1")
93.6
>>> val("Cn1ccnc1CN(CCCn1ccnc1)Cc1ccccc1F")
102
>>> val("CCOc1cc(NC2CCN(C(=O)OC(C)(C)C)CC2)ncn1")
89.6
>>> val("CN(C)CCN(C)c1cncc(-c2cccc(N)c2)n1")
87.3
>>> val("NC(=O)c1ccc(NC(=O)c2cncc(-c3ccc(C(=O)N4CCOCC4)cc3)c2)cc1")
106
>>> val("NC(CCCCNC(=O)c1ccccc1)C(=O)O (centres unmarked)")
97
>>> val("O=C(CC1c2ccccc2Oc2ccccc21)Nc1ccc(Cc2ccncc2)cc1")
91.6
>>> val("CCNC(=O)N1CCC(Oc2cc(C)ccc2F)(C(=O)O)CC1")
87.9
>>> val("Cc1ccc(SCC(=O)Nc2cc(C)on2)cc1")
115
>>> val("CC(=O)Nc1nc2c3ccccc3n(C(C)=O)c2s1")
110
>>> val("Cc1cc(-c2cn3cc(C(=O)NCCCCO)nc3c(=O)n2C)c(C)o1")
106
>>> val("Brc1ccc2c(c1)COC1(CN3CCC1CC3)O2 (centres unmarked)")
107
>>> val("O=S(=O)(NCCc1ccccc1)c1cccc2nsnc12")
103
>>> val("O=c1[nH]c2ncc(-c3ccsc3)nc2n1CCCO")
94.9
>>> val("Cc1cc(C)n2c(SCC(C)(C)NS(=O)(=O)c3ccccc3)nnc2n1")
111
>>> val("O=P(O)(CCc1ccncc1)CN1CCCCC1")
104
>>> val("O=C(Cc1ccsc1)NCCn1nc(-c2cccs2)ccc1=O")
96.5
>>> val("O=C(O)c1cccc(NC(=O)C2CCCCC2C(=O)O)c1 (centres unmarked)")
96.6
>>> val("NCc1ccc(C(=O)N(CCc2cc(C(F)(F)F)cc(C(F)(F)F)c2)c2ccc(Cl)c(Cl)c2)cc1 [CBK008632T]")
112
>>> val("CCc1nc2c(N3CCCn4nc(C(O)C5CC5)cc4C3)ncnc2o1 (centres unmarked)")
78.6
>>> val("CCC(Oc1ccccc1F)C(=O)Nc1cc(C)on1 (centres unmarked)")
98.5
>>> val("Cn1c(=O)n(C)c2cc(CNc3nn[nH]n3)ccc21")
92.4
>>> val("Cn1cc(CC(=O)Nc2ccc(N3CCNCC3)nc2)c2ccccc21 [CBK028275T]")
72.1
>>> val("O=C(O)CCn1c2ccc(Cl)cc2c2cc(Cl)ccc21")
89.5
>>> val("CC(=O)N1CCC2(C/C=C/C[C@H]3CN(CCO)CC[C@H]3NC(=O)CNC2=O)CC1")
92.8
>>> val("Clc1cncc(-c2ccccc2)n1")
93.8
>>> val("CC[C@H](CO)NC(=O)c1coc(COc2ccc3sc(C)nc3c2)n1")
85.3
>>> val("CSc1ccc(-c2cn3ccnc3c(Nc3ccccc3)n2)cc1")
91.3
>>> val("CC(C)CNc1nc(-c2cccc(O)c2)cnc1N")
99.1
>>> val("O=C(c1c[nH]c2ccccc12)N1CCC(Cc2ccccc2)CC1")
91.3
>>> val("COc1cc(/C=C(/C#N)C(N)=O)cc(Br)c1O")
88.1
>>> val("Cc1ccc(C2C(C(=O)c3ccccc3)=C(O)C(=O)N2CCC(=O)O)cc1 (centres unmarked)")
81.1
>>> val("CCOC(=O)CCCNC(=O)N1CCN(c2ccccc2)CC1")
94.6
>>> val("COc1ncc(-c2cncc(NCCc3ccccn3)n2)c(OC)n1")
97.7
>>> val("O=C(O)c1cc2ncc(CCO)cn2n1")
99.6
>>> val("COc1cc(=O)n(C)c(C)n1")
91
